Exercise: for every item that follows, state its recorded Rel. EC50 - ELISA.
# Tgt: T1, SARS-CoV-2 RBD (SinoBiological, Cat. No. 40592-V02H) (SARS-CoV-2, UniProt P0DTC2 319-541)
# T1 construct: domain: RBD
# Assay Explanation: ELISA on SARS-CoV-2 RBD

Binder: VHH-72 (S57A) (VHH) VHH: QVQLQESGGGLVQAGGSLRLSCAASGRTFSEYAMGWFRQAPGKEREFVATISWSGGATYYTDSVKGRFTISRDNAKNTVYLQMNSLKPDDTAVYYCAAAGLGTVVSEWDYDYDYWGQGTQVTVSS
Result: 0.05 relative to WT

Binder: VHH-72(S57G) (VHH) VHH: QVQLQESGGGLVQAGGSLRLSCAASGRTFSEYAMGWFRQAPGKEREFVATISWSGGGTYYTDSVKGRFTISRDNAKNTVYLQMNSLKPDDTAVYYCAAAGLGTVVSEWDYDYDYWGQGTQVTVSS
Result: 0.09 relative to WT

For every item below, please supply its Rel. EC50 - ELISA.
1. VHH-72(S57S) (VHH) VHH: QVQLQESGGGLVQAGGSLRLSCAASGRTFSEYAMGWFRQAPGKEREFVATISWSGGSTYYTDSVKGRFTISRDNAKNTVYLQMNSLKPDDTAVYYCAAAGLGTVVSEWDYDYDYWGQGTQVTVSS
2. VHH-72 (S57Y) (VHH) VHH: QVQLQESGGGLVQAGGSLRLSCAASGRTFSEYAMGWFRQAPGKEREFVATISWSGGYTYYTDSVKGRFTISRDNAKNTVYLQMNSLKPDDTAVYYCAAAGLGTVVSEWDYDYDYWGQGTQVTVSS

Key:
1 relative to WT
0.28 relative to WT
